Sourced from patent US8232308B2

This section presents molecules with their documented pKi values.
- EXPERIMENTAL_SYSTEM: activated ROCK II (Rattus norvegicus, UniProt Q62868)
- Sequence (Q62868 11-550 limits assumed): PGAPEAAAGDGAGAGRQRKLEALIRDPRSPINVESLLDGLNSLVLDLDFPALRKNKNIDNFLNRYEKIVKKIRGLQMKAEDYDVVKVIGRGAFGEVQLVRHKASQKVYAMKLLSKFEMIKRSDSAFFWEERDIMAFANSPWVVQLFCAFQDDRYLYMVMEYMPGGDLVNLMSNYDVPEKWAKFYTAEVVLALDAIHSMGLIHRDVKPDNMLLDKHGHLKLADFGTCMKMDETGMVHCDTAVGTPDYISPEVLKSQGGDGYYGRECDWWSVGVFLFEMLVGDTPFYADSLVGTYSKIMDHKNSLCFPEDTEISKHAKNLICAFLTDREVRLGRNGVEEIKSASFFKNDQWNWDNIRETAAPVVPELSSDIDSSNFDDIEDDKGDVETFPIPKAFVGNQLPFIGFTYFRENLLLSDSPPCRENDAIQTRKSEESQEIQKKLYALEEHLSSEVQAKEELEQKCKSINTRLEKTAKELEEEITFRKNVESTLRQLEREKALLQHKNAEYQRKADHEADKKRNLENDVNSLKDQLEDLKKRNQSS
- ASSAY: Test for Evaluation of Inhibiting Activity to Rho Kinase
- MEASUREMENT_SETUP: S6 Kinase Substrate Peptide, [γ-32P]ATP, 30° C. for 15 minutes, Ki=IC50/(1+S/Km)
Counter-ions that a name gives are not always drawn.
Formally, pKi is defined as -log10 of the concentration c, with c in mol/L.

CC(C)(N)c1ccc(-c2ccc3[nH]ncc3c2-c2cn[nH]c2)cc1 [Compound 5-64, trihydrochloride] | 8.36

Request the reported pKi associated with CC(C)(N)c1ccc(-c2ccc3[nH]nc(C=NO)c3c2)cc1 [Compound 5-12, monohydrochloride]
8.12

Find the recorded pKi belonging to CCOc1c(-c2ccc(C(N)(CC)CC)cn2)ccc2[nH]ncc12 [Compound 5-60, trihydrochloride] and report it.
7.46

----------
- EXPERIMENTAL_SYSTEM: activated ROCK II (Rattus norvegicus)
- ASSAY: Test for Evaluation of Inhibiting Activity to Rho Kinase
- MEASUREMENT_SETUP: S6 Kinase Substrate Peptide, [γ-32P]ATP, 30° C. for 15 minutes, Ki=IC50/(1+S/Km)
Counter-ions that a name gives are not always drawn.
Collected pKi values appear next to each entry.
# reply with the number alone; pKi is -log10 of concentration in mol/L

Below, each entry is followed by its recorded pKi result.
CC(C)(N)c1ccc(-c2ccc3[nH]ncc3c2CCO)cc1 [Compound 5-32, dihydrochloride] | 7.33
CC(C)(N)c1ccc(-c2ccc3[nH]ncc3c2OC(F)F)nc1 [Compound 5-59, trihydrochloride] | 8.16
CC(C)(N)c1ccc(-c2ccc3[nH]ncc3c2N2CCOCC2)cc1 [Compound 5-43, trihydrochloride] | 6.68
COc1c(-c2ccc(C3(N)CCCC3)cn2)ccc2[nH]ncc12 [Compound 5-46, trihydrochloride] | 7.57
CCC(N)(CC)c1ccc(-c2ccc3[nH]ncc3c2OC2CC2)nc1 [Compound 5-71, trihydrochloride] | 7.47
CC(C)(N)c1ccc(-c2ccc3[nH]ncc3c2O)nc1 [Compound 5-69, trihydrochloride] | 7.26

Record request: pKi value, item CCOc1c(-c2ccc(C(C)(C)N)cc2)ccc2[nH]ncc12 [Compound 5-49, dihydrochloride]
7.77

----------
Entries annotated with measured pKi
- EXPERIMENTAL_SYSTEM: activated ROCK II (Rattus norvegicus)
- ASSAY: Test for Evaluation of Inhibiting Activity to Rho Kinase
- MEASUREMENT_SETUP: S6 Kinase Substrate Peptide, [γ-32P]ATP, 30° C. for 15 minutes, Ki=IC50/(1+S/Km)
Where a name gives a salt, the structure may show the parent alone.
Expect pKi as a plain number equal to -log10 of the molar concentration.

Example entries begin here.
Nc1c(-c2ccc(C3(N)CCCC3)cc2)ccc2[nH]ncc12 [Compound 5-21, dihydrochloride] | 7.59
CC(C)(N)c1ccc(-c2ccc3[nH]nc(C#N)c3c2)cc1 [Compound 5-13, dihydrochloride] | 6.99
CC(C)(N)c1ccc(-c2ccc3[nH]ncc3c2-c2ccno2)cc1 [Compound 5-68, dihydrochloride] | 8.19

We now examine a further molecule.
Sample CC(C)(N)c1ccc(-c2ccc3[nH]nc(CO)c3c2)cc1 [Compound 5-14, dihydrochloride] — what was its pKi?
6.85

----------
melting point values, listed per item
Counter-ions that a name gives are not always drawn.

C=Cc1c(-c2ccc(C(C)(C)N)cn2)ccc2[nH]ncc12 (as salt: hydrochloride) [Compound 5-30, trihydrochloride] | 162 to 166 °C (dec.)
CC(N)c1ccc(-c2ccc3[nH]ncc3c2N(C)C)cc1 (stereo not drawn) (as salt: hydrochloride) [Compound 5-26, trihydrochloride] | 180 to 182 °C (dec.)
CC(C)(N)c1ccc(-c2ccc3[nH]ncc3c2O)nc1 (as salt: hydrochloride) [Compound 5-69, trihydrochloride] | 255 to 260 °C (dec.)
CCOc1c(-c2ccc(C(N)(CC)CC)cn2)ccc2[nH]ncc12 (as salt: hydrochloride) [Compound 5-60, trihydrochloride] | 200 to 202 °C (dec.)
CCN(CC)c1c(-c2ccc(C(C)(C)N)cc2)ccc2[nH]ncc12 (as salt: hydrochloride) [Compound 5-31, trihydrochloride] | 182 to 184 °C (dec.)
CC(C)(N)c1ccc(-c2ccc3[nH]nc(C(N)=O)c3c2)cc1 (as salt: hydrochloride) [Compound 5-10, monohydrochloride] | 258 to 261 °C (dec.)
CN(C)c1c(-c2ccc(CN)cc2)ccc2[nH]ncc12 (as salt: hydrochloride) [Compound 5-23, trihydrochloride] | 188 to 192 °C (dec.)
CC(C)(N)c1ccc(-c2ccc3[nH]nc(CO)c3c2)cc1 (as salt: hydrochloride) [Compound 5-14, dihydrochloride] | 238 to 242 °C (dec.)

What measured melting point goes with CC(C)(N)c1ccc(-c2ccc3[nH]ncc3c2OC(F)F)nc1 (as salt: hydrochloride) [Compound 5-59, trihydrochloride] ?
170 to 173 °C

What melting point value was documented for this molecule, C=C(C)c1n[nH]c2ccc(-c3ccc(C(C)(C)N)cc3)cc12 (as salt: trifluoroacetate) [Compound 5-15, monotrifluoroacetate] ?
221 to 225 °C (dec.)

melting point for CC(C)(N)c1ccc(-c2ccc3[nH]ncc3c2-c2ccccn2)cc1 (as salt: hydrochloride) [Compound 5-63, trihydrochloride] ?
210 to 214 °C (dec.)

Look up melting point: NCc1ccc(-c2ccc3[nH]ncc3c2[N+](=O)[O-])cc1 (as salt: hydrochloride) [Compound 5-19, dihydrochloride]
269 to 274 °C (dec.)
